Data credit: the supplement of paper PMC8671470

Entries annotated with measured cell viability
Tested on: HL-60
Assay: cell viability (% survival relative to DMSO control, bortezomib = 0%); higher = less cytotoxic
Settings: 1 nM; 72 h
Value expressed in %; do not type the unit.

COMPOUND | VALUE REPORTED
N#CC(C#N)=NNc1ccc(OC(F)(F)F)cc1 | 88.2
O=C1O[C@H]([C@@H](O)CO)C(O)=C1O [Vitamin C (ascorbate)] | 104
CCCc1cc(-c2nc(-c3ccc(C)cc3)cs2)ccn1 | 110
O=C(O)CCCCC(CCSCc1ccccc1)SCc1ccccc1 (stereo not drawn) | 107
COc1ccc(C(=O)Nc2c(Cl)cncc2Cl)cc1OC1CCCC1 | 87.1

Prompt: Entry NCCCC(N)(C(=O)O)C(F)F (stereo not drawn) , system HL-60: what cell viability was measured?
Response: 93.6

Prompt: Entry CC[C@H](C)C(=O)O[C@H]1C[C@@H](C)C=C2C=C[C@H](C)[C@H](CC[C@@H]3C[C@@H](O)CC(=O)O3)[C@H]21 , system HL-60: what cell viability was measured?
Response: 96.8

Prompt: Entry Cc1cn([C@H]2C[C@H](O)[C@@H](COP(=O)(O)OP(=O)(O)O)O2)c(=O)[nH]c1=O [Thymidine diphosphate] , system HL-60: what cell viability was measured?
Response: 88.6

Prompt: Entry CN(C)C(=O)[C@H](O)[C@H](Cc1ccccc1)NC(=O)c1cc2cc(Cl)ccc2[nH]1 , system HL-60: what cell viability was measured?
Response: 85.4

Prompt: Entry C=C(C=NNC(=N)N)NNC(=N)N , system HL-60: what cell viability was measured?
Response: 85.2

Prompt: Entry O=C(O)c1cc(Cl)cc(Cl)c1O , system HL-60: what cell viability was measured?
Response: 106

Prompt: Entry CCC(=O)N1CCN(c2ccc(-n3c(=O)ccc4cnc5ccc(-c6cnc7ccccc7c6)cc5c43)cc2C(F)(F)F)CC1 , system HL-60: what cell viability was measured?
Response: 73.2

Prompt: Entry Cc1ccccc1C(C(=O)NC1CCCCC1)N(C(=O)Cn1ccnc1C)c1cccc(F)c1 (stereo not drawn) , system HL-60: what cell viability was measured?
Response: 107

###

Tested on: MV4-11
Test: cell viability (% survival relative to DMSO control, bortezomib = 0%); higher = less cytotoxic
Settings: 100 nM; 72 h
Labelling: cell viability reported below 90% becomes Fulfilled; at or above becomes Not fulfilled.

SMILES REPR | DISCRETE LABEL
CC(C)c1onc(-c2c(Cl)cccc2Cl)c1COc1ccc(/C=C/c2cccc(C(=O)O)c2)c(Cl)c1 | Fulfilled
O=C(C1CC1)N1CC[C@@H](C=C2NNC(=O)N2c2ccc(-c3ccc4occc4c3)cc2)C1 | Fulfilled
CC(C)(C#N)c1cc(Cn2cncn2)cc(C(C)(C)C#N)c1 | Not fulfilled

Prompt: Identify whether the compound CC(C)c1nc(CN(C)C(=O)N[C@H](C(=O)N[C@@H](Cc2ccccc2)C[C@H](O)[C@H](Cc2ccccc2)NC(=O)OCc2cncs2)C(C)C)cs1 records cell viability below 90%.
Response: Not fulfilled

Prompt: Identify whether the compound Cc1coc2c1C(=O)C(=O)c1c-2ccc2c1CCCC2(C)C records cell viability below 90%.
Response: Not fulfilled

Prompt: Identify whether the compound O=C(O)c1cc(N=Nc2ccc(S(=O)(=O)Nc3ccccn3)cc2)ccc1O records cell viability below 90%.
Response: Not fulfilled

Prompt: Identify whether the compound COc1ccc(-c2ccccc2)cc1NS(=O)(=O)c1cc(Cl)cc(Cl)c1O records cell viability below 90%.
Response: Not fulfilled

Prompt: Identify whether the compound CC(C)c1cc2c(c(O)c1O)[C@@]1(C(=O)O)CCCC(C)(C)[C@@H]1CC2 records cell viability below 90%.
Response: Not fulfilled
